Tested on: PAH-SMC
Assay: Antiproliferative effects, Cell Counting Kit-8, PAH-SMC
Type: cell-based, human
Details: Homo sapiens, 24 h, read-out: PAH-SMC (IC50) Normoxia, normoxia, 24 h treatment
Assay metric: IC50 (µM)
State the answer as a number, implicitly in µM.

Compound: O=[N+]([O-])c1ccc(COc2nccc3c(S(=O)(=O)N4CCCNCC4)cccc23)cc1
Target or test system: PAH-SMC
IC50, µM: 53.5

Now consider the entry below.
Which IC50 is listed for O=S(=O)(c1cccc2cnccc12)N1CCCNCC1 [Fasudil, reference compound] ?
4.9
